- test.method.notes: Inhibition of GSK-3beta (unknown origin) using GS-1 as substrate incubated for 20 mins
pIC50: −log10 of the molar value.
Below: a set of entries, each annotated with reported pIC50.
result.type: pIC50

record_smiles=Cn1sc(=O)n(-c2cccc3ccccc23)c1=O recorded_measurement=5.52
record_smiles=CCn1sc(=O)n(CC)c1=S recorded_measurement=4.70
record_smiles=CCn1sc(=O)n(CC)c1=O recorded_measurement=4.60

----------
Listed next: entries and their corresponding IC50.
- system.tested: UniProt:P49841
- Sequence (P49841 whole entry): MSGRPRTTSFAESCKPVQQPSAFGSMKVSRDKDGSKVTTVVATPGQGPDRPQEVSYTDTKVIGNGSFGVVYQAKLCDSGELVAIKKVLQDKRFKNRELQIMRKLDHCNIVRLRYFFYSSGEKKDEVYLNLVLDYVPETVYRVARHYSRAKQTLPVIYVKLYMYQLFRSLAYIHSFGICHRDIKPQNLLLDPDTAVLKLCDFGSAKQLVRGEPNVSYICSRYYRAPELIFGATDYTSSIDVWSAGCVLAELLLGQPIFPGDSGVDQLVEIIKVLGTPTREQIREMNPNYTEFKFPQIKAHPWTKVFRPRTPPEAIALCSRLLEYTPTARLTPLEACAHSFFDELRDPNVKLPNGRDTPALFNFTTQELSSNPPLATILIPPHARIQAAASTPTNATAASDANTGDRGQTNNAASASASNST
- test.method.notes: Inhibition of human recombinant GSK3-beta
result.type: IC50

record_smiles=COc1cc2c(c(OC)c1OC)-c1c(cc3c(c1OC)OCO3)C[C@@H](C)[C@@H](C)C2 recorded_measurement="81 nM"
record_smiles=COc1cc2c(c(OC)c1OC)-c1c(cc3c(c1OC)OCO3)C[C@H](C)[C@H](C)C2 recorded_measurement="73 nM"
